target: Replicase polyprotein 1ab (Severe acute respiratory syndrome coronavirus 2, UniProt P0DTD1)
Each entry below lists one item and its recorded IC50 value.
Express your answer in µM, writing the number without its unit.

Past entries and their recorded results:
molecule: CC(C)(O)C1Cc2cc(/C=C3\OC(=O)C(c4cc5c(cc4O)OC(C)(C)C(O)C5)=C3O)ccc2O1 (stereo not drawn)
IC50 / µM: 9.4
--
molecule: CC(C)=CCc1cc(/C=C2\OC(=O)C(c3cc(CCC(C)(C)O)c(O)cc3O)=C2O)ccc1O
IC50 / µM: 7.7

With those in mind, consider the next molecule.
The recorded IC50 for CC(C)=CCc1cc(/C=C2\OC(=O)C(c3cc4c(cc3O)OC(C)(C)CC4)=C2O)ccc1O is 10.3

These data points were gathered from BindingDB's records for doi:10.1016/j.bmcl.2005.03.089.
